The values you see were collected from patent US20240228562A1.

# kon annotations
Biological target: T1, mouse CTGF (Abbexa) (mouse, UniProt P29268 26-348, limits assumed)
T1 construct: also called Murine CTGF; mCTGF
T1 sequence (looked up): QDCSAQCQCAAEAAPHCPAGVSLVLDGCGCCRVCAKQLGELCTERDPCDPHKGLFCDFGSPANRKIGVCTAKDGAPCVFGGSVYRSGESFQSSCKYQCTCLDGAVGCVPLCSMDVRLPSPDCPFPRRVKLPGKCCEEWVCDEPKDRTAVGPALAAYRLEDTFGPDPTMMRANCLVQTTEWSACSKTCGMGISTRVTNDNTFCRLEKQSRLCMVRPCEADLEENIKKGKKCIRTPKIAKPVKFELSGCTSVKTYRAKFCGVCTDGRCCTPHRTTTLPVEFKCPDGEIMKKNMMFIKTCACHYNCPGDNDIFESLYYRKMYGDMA
Experiment: SPR (Biacore)

Here is how some binders turned out for kon.
[[record]]
binder = "lipocalin mutein of SEQ ID NO: 24 (designed binder, also called hNGAL mutein) QDSTSDLIPAPPLSKVPLQQNFQDNQFQGKWYVVGVAGNAILRTDKQPAKMFATIYELKEDKSYDVTSVRFEAKSCKYTIKTFVPGSQPGEFTAGNIKSAPGQTSTLVRVVSTNYNQHAMVFFKHVSQNREIFVITLYGRTKELTSELKENFIRFSKSLGLPENHIVFPVPIDQCIDG"
experimentalresult = "299000 M⁻¹ s⁻¹"

[[record]]
binder = "lipocalin mutein of SEQ ID NO: 32 (designed binder, also called hNGAL mutein; not shown: C-terminal His-tag) QDSTSDLIPAPPLSKVPLQQNFQDNQFQGKWYVVGWAGNVKLREDKQPFKMSATIYELKEDKSYDVTEVVFEQKKCHYIIKTFVPGSQPGEFTLSPISSSPGLVSHLVRVVSTNYNQHAMVFFKKVHQNREFFWITLYGRTKELTSELKENFIRFSKSLGLPENHIVFPVPIDQCIDG"
experimentalresult = "133000 M⁻¹ s⁻¹"

[[record]]
binder = "lipocalin mutein of SEQ ID NO: 8 (designed binder, also called hNGAL mutein; not shown: C-terminal His-tag) QDSTSDLIPAPPLSKVPLQQNFQDNQFQGKWYVVGLAGNYGLRTDKRPSKMFATIYELKEDKSYDVTSVRFEQERCHYTIRTFVPGSQPGEFTSGNIGNYPGSYSTLVRVVSTNYNQHAMVFFKSVIQNREYFAITLYGRTKELTSELKENFIRFSKSLGLPENHIVFPVPIDQCIDG"
experimentalresult = "72000 M⁻¹ s⁻¹"


-- ask Can you look up the measured kon of lipocalin mutein of SEQ ID NO: 33 (designed binder, also called hNGAL mutein; not shown: C-terminal His-tag) QDSTSDLIPAPPLSKVPLQQNFQDNQFQGKWYVVGWAGNAKLREDKQPFKMSATIYELKEDKSYDVTEVVFEQKKCHYIIKTFVPGSQPGEFTEGNYKRRPRLWSDLVRVVSTNYNQHAMVFFKKVHQNREFFWITLYGRTKELTSELKENFIRFSKSLGLPENHIVFPVPIDQCIDG for me?
-- reply 176000 M⁻¹ s⁻¹

-- ask Can you look up the measured kon of lipocalin mutein of SEQ ID NO: 19 (designed binder, also called hNGAL mutein; not shown: C-terminal His-tag) QDSTSDLIPAPPLSKVPLQQNFQDNQFQGKWYVVGLAGNAILREDKQPAKMFATIYELKEDKSYDVTSVRFEAKSCSYTIKTFVPGSQPGEFTAGNIKSAPGQTSTLVRVVSTNYNQHAMVFHKAVSQNRESFVITLYGRTKELTSELKENFIRFSKSLGLPENHIVFPVPIDQCIDG for me?
-- reply 93200 M⁻¹ s⁻¹

-- ask Can you look up the measured kon of lipocalin mutein of SEQ ID NO: 31 (designed binder, also called hNGAL mutein; not shown: C-terminal His-tag) QDSTSDLIPAPPLSKVPLQQNFQDNQFQGKWYVVGWAGNVKLREDKQPQKMSATIYELKEDKSYDVTEVVFEQKKCHYIIKTFVPGSQPGEFTAGDIKSPPGYTSSLVRVVSTNYNQHAMVFFKKVSQNREFFWITLYGRTKELTSELKENFIRFSKSLGLPENHIVFPVPIDQCIDG for me?
-- reply 281000 M⁻¹ s⁻¹
